Taken from patent US11214803B2.

Tested on: Yap1 mRNA
Assay: Antisense inhibition of human Yap1 in A-431 cells by cEt gapmers, single dose (Example 3, RTS36584)
Assay type: cell-based
Settings: Table 35; Yap1 mRNA as percent of untreated control; 3-10-3 cEt gapmers targeting SEQ ID NO: 1 and 2; single dose
Protocol: Modified oligonucleotides were designed to target a Yap1 nucleic acid and were tested for their effect on Yap1 mRNA level in vitro. The modified oligonucleotides were tested in a series of experiments that had similar culture conditions. […] After a treatment period of approximately 48 hours, RNA was isolated from the cells and Yap1 mRNA levels were measured by quantitative real-time RTPCR. […] Yap1 mRNA levels were normalized to total RNA content, as measured by RIBOGREEN®. […]
Strand notation (5' to 3'): a small letter for the sugar, then the base; units joined by * are phosphorothioate-linked, units joined directly phosphodiester-linked; [ ] holds rarer units or linkages, { } end groups; capitals alone tell only the bases. k = constrained ethyl (cEt); [5mC] = 5-methylcytosine; d = 2'-deoxy (DNA)
measure: YAP1 (% UTC)

{"substance": "1074453 (kG*kT*kG*dA*d[5mC]*dT*dA*dA*dT*dG*dA*dT*dA*kG*k[5mC]*kA; antisense) [compound 1074453]", "system": "Yap1 mRNA", "testResult": 4}
{"substance": "1075029 (antisense kA*kT*kA*dT*dT*d[5mC]*dG*dA*d[5mC]*dA*d[5mC]*dT*dG*kG*kA*kG) [compound 1075029]", "system": "Yap1 mRNA", "testResult": 33}
{"substance": "1075797 (kG*kA*kT*dA*dA*dT*d[5mC]*dA*dT*dG*dA*dT*dA*k[5mC]*kT*k[5mC]; antisense) [compound 1075797]", "system": "Yap1 mRNA", "testResult": 3}
{"substance": "1074645 (antisense kA*kA*kT*dT*dG*dA*dA*dG*dG*dG*d[5mC]*d[5mC]*dA*kA*kA*kA) [compound 1074645]", "system": "Yap1 mRNA", "testResult": 81}

---

Tested on: Yap1 mRNA
Assay: Antisense inhibition of human Yap1 in A-431 cells by cEt gapmers, single dose (Example 3, RTS36584)
Format: cell-based
Conditions: Table 35; Yap1 mRNA as percent of untreated control; 3-10-3 cEt gapmers targeting SEQ ID NO: 1 and 2; single dose
Strand notation (5' to 3'): a small letter for the sugar, then the base; units joined by * are phosphorothioate-linked, units joined directly phosphodiester-linked; [ ] holds rarer units or linkages, { } end groups; capitals alone tell only the bases. k = constrained ethyl (cEt); [5mC] = 5-methylcytosine; d = 2'-deoxy (DNA)
Decision: YAP1 (% UTC) >= 80 % UTC yields 1.0, all other cases yield 0.0.

{"substance": "1074133 (kG*k[5mC]*kG*dG*d[5mC]*d[5mC]*d[5mC]*d[5mC]*dG*d[5mC]*dA*dT*d[5mC]*k[5mC]*k[5mC]*k[5mC]; antisense) [compound 1074133]", "classification": 1.0}
{"substance": "1076213 (kT*k[5mC]*kT*d[5mC]*dA*dA*dG*dG*dA*dA*dT*dT*dG*k[5mC]*k[5mC]*kT; antisense) [compound 1076213]", "classification": 0.0}
{"substance": "1074357 (antisense k[5mC]*kG*kA*dG*dG*dG*dA*d[5mC]*dA*d[5mC]*dT*dG*dT*kA*kG*k[5mC]) [compound 1074357]", "classification": 0.0}
{"substance": "1076277 (kG*k[5mC]*kT*dA*dA*dA*dA*d[5mC]*dA*dT*d[5mC]*dA*dG*kA*kT*kA; antisense) [compound 1076277]", "classification": 0.0}
{"substance": "1075093 (k[5mC]*kA*kA*dA*dG*dT*dA*dA*dG*dG*dT*dA*dT*kG*kA*kG; antisense) [compound 1075093]", "classification": 0.0}
{"substance": "1074997 (antisense kG*k[5mC]*k[5mC]*dG*d[5mC]*dG*dA*dG*dG*dA*dA*dA*dA*kT*kA*kA) [compound 1074997]", "classification": 1.0}

---

Tested on: Yap1 mRNA
Test: Dose-dependent inhibition of human Yap1 in SNU-449 cells (Example 9, RTS36584)
Format: cell-based
Conditions: 500.0 nM, free uptake, approximately 48 hours
Protocol: Modified oligonucleotides described in the studies above were tested at various doses in SNU-449 cells. […] After approximately 48 hours, Yap1 mRNA levels were measured as previously described using the Human Yap1 primer-probe set RTS36584. Yap1 mRNA levels were normalized to total RNA content, as measured by RIBOGREEN®. […] IC50s were calculated using a linear regression on a log/linear plot of the data in excel.
Strand notation (5' to 3'): a small letter for the sugar, then the base; units joined by * are phosphorothioate-linked, units joined directly phosphodiester-linked; [ ] holds rarer units or linkages, { } end groups; capitals alone tell only the bases. e = 2'-O-(2-methoxyethyl) (MOE); k = constrained ethyl (cEt); [5mC] = 5-methylcytosine; d = 2'-deoxy (DNA); m = 2'-O-methyl

{"substance": "1198569 (CACTTTTACATTAGGA; modified gapmer, chemistry not fully specified) [compound 1198569]", "% UTC (Yap1 mRNA), % UTC": 22}
{"substance": "1198642 (kT*kA*dT*dT*dA*dG*dA*dG*dT*dA*dT*dG*kT*eG*kG*e[5mC]; antisense) [compound 1198642]", "% UTC (Yap1 mRNA), % UTC": 15}
{"substance": "1198212 (kT*kA*dT*dT*dA*dG*dA*dG*dT*dA*dT*eG*eT*eG*kG*k[5mC]) [compound 1198212]", "% UTC (Yap1 mRNA), % UTC": 10}
{"substance": "1200788 (kG*kA*kA*dA*dT*mU*dG*dT*d[5mC]*dT*d[5mC]*dA*dT*kG*k[5mC]*k[5mC]) [compound 1200788]", "% UTC (Yap1 mRNA), % UTC": 19}
{"substance": "1198786 (kT*eG*kT*dA*dT*dG*dT*d[5mC]*dA*dG*dA*dA*eG*eA*kG*kT) [compound 1198786]", "% UTC (Yap1 mRNA), % UTC": 11}
{"substance": "1198297 (kA*kT*kT*dA*dG*dA*dG*dT*dA*dT*dG*dT*kG*eG*k[5mC]*eA) [compound 1198297]", "% UTC (Yap1 mRNA), % UTC": 16}
{"substance": "1076481 (k[5mC]*kT*kA*dA*dG*dT*dA*dA*dG*dG*dT*dT*dT*k[5mC]*k[5mC]*k[5mC]) [compound 1076481]", "% UTC (Yap1 mRNA), % UTC": 15}
{"substance": "1198831 (CACTTTTACATTAGGA; chemically modified gapmer, further chemistry not given here) [compound 1198831]", "% UTC (Yap1 mRNA), % UTC": 10}
{"substance": "1198902 (kT*kT*dA*dG*dA*dG*dT*dA*dT*dG*dT*kG*dG*k[5mC]*dA*kA; antisense) [compound 1198902]", "% UTC (Yap1 mRNA), % UTC": 22}
{"substance": "1198289 (kG*kG*kA*dA*dA*dT*dT*dG*dT*d[5mC]*dT*d[5mC]*kA*eT*kG*e[5mC]; antisense) [compound 1198289]", "% UTC (Yap1 mRNA), % UTC": 18}
{"substance": "1198818 (kT*kA*dT*dT*dA*dG*dA*dG*dT*dA*dT*kG*eT*kG*eG*k[5mC]) [compound 1198818]", "% UTC (Yap1 mRNA), % UTC": 15}
{"substance": "1198900 (kA*kG*dA*dG*dT*dA*dT*dG*dT*dG*dG*k[5mC]*dA*kA*dT*kA; antisense) [compound 1198900]", "% UTC (Yap1 mRNA), % UTC": 18}
{"substance": "1198285 (kA*kT*kT*dG*dT*d[5mC]*dT*d[5mC]*dA*dT*dG*d[5mC]*k[5mC]*eT*kT*eA; antisense) [compound 1198285]", "% UTC (Yap1 mRNA), % UTC": 16}
{"substance": "1198905 (kA*kT*dA*dT*dT*dA*dG*dA*dG*dT*dA*kT*dG*kT*dG*kG; antisense) [compound 1198905]", "% UTC (Yap1 mRNA), % UTC": 21}
{"substance": "1074461 (kG*kA*kA*dA*dT*dT*dG*dT*d[5mC]*dT*d[5mC]*dA*dT*kG*k[5mC]*k[5mC]) [compound 1074461]", "% UTC (Yap1 mRNA), % UTC": 15}
{"substance": "1198492 (kG*k[5mC]*dT*dT*dT*dG*dG*dA*dA*dG*dA*eT*k[5mC]*eT*kG*eA; antisense) [compound 1198492]", "% UTC (Yap1 mRNA), % UTC": 19}
{"substance": "1198641 (kA*kT*dT*dA*dG*dA*dG*dT*dA*dT*dG*dT*kG*eG*k[5mC]*eA; antisense) [compound 1198641]", "% UTC (Yap1 mRNA), % UTC": 11}
